This section presents compounds with their documented pIC50 values.
- assayed_target: Fatty-acid amide hydrolase 1 (Rattus norvegicus, UniProt P97612)
- Sequence (P97612 whole entry): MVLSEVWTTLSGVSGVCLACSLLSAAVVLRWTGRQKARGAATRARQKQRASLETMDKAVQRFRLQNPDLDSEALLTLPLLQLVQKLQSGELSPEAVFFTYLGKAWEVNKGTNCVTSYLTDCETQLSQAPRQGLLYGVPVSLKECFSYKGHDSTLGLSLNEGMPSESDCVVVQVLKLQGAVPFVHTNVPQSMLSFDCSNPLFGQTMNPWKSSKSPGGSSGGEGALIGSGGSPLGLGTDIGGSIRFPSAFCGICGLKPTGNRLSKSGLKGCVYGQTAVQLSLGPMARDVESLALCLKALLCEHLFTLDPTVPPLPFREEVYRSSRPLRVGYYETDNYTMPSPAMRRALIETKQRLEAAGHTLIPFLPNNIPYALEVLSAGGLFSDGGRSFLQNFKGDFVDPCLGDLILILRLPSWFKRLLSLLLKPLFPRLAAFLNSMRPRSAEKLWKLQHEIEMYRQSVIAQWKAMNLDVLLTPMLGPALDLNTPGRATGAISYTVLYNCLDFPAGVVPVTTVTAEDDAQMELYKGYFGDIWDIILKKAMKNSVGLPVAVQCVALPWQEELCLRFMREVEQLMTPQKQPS
- method_summary: Inhibition of rat FAAH preincubated for 20 mins
API: returns pIC50 as number; meaning -log10 of concentration in mol/L.

Example results:
[[record]]
mol = "O=C(Nc1cccc(Cl)c1)N1CCN(c2nc(-c3ccccc3)ns2)CC1"
quantitative_result = 6.79

[[record]]
mol = "COc1ccccc1NC(=O)N1CCN(c2nc(-c3ccccc3)ns2)CC1"
quantitative_result = 7.33


// next entry
Given the entry "O=C(Nc1ccc(F)cc1)N1CCN(c2nc(-c3ccccc3)ns2)CC1" , report its measured pIC50. 7.04
